Target: Glucagon-like peptide 1 receptor (Homo sapiens, UniProt P43220)
Sequence (P43220 whole entry): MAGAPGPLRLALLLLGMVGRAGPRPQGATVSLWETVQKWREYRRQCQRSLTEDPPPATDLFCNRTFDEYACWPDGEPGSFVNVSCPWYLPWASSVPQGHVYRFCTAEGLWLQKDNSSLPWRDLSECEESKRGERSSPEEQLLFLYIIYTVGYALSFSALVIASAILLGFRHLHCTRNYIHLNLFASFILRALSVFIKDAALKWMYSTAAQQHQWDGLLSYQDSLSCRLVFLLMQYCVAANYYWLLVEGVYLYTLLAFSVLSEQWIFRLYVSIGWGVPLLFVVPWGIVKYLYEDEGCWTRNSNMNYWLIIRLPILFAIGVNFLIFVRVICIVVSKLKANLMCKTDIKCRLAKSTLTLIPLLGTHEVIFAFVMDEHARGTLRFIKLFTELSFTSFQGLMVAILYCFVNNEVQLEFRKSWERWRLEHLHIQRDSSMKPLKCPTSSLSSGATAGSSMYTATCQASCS
Test: GLP-1R agonist cAMP stimulation Assay
pEC50: −log10 of the molar value.

smiles.input: Cc1coc2c(COc3cccc(C4=CCN(Cc5nc6cc(C(=O)Nc7cc(F)c8c(c7)C7(CC7)C(=O)N8)ccc6n5C[C@@H]5CCO5)CC4)n3)ccc(C#N)c12
test.system: Glucagon-like peptide 1 receptor (Homo sapiens, UniProt P43220)
pEC50: 9.72
